- experimental_protocol: Binding affinity to chitin synthase (unknown origin) assessed as dissociation constant by SPR analysis
readout_name: Kd (nM)
Note: unit nM is implicit; provide only the numeric part.

* O=C(NCC(=O)N1CCN(C(=O)c2ccccc2)CC1)c1nc2ccc(Cl)cc2c(=O)[nH]1 | 1.94

Lookup: Please give the measured Kd for this compound: "O=C(CNC(=O)c1nc2ccc(Cl)cc2c(=O)[nH]1)NCC(=O)c1ccccc1"
Found: 7.52

Lookup: Recorded Kd for "O=C(NCC(=O)N1CCN(c2ccccc2)CC1)c1nc2ccc(Cl)cc2c(=O)[nH]1" , please?
Found: 60.8

Lookup: Return reported Kd; argument: "NC(=O)OC[C@H](O)[C@@H](O)[C@H](N)C(=O)N[C@H](C(=O)O)[C@H]1O[C@@H](n2cc(CO)c(=O)[nH]c2=O)[C@H](O)[C@@H]1O"
Found: 5.62

---

Below, each entry is listed alongside its reported Activity.
- System: Candida albicans
- experimental_protocol: Fungicidal activity against Candida albicans ATCC SC5314 assessed as live cells (reference value: 92%)
- Type: functional
State just the number; it will be interpreted in %.

Example entries and their recorded answers appear below.
* NC(=O)OC[C@H](O)[C@@H](O)[C@H](N)C(=O)N[C@H](C(=O)O)[C@H]1O[C@@H](n2cc(CO)c(=O)[nH]c2=O)[C@H](O)[C@@H]1O [POLYOXIN B] | 19
* O=C(NCC(=O)N1CCN(c2ccccc2)CC1)c1nc2ccc(Cl)cc2c(=O)[nH]1 | 22
* O=C(CNC(=O)c1nc2ccc(Cl)cc2c(=O)[nH]1)NCC(=O)c1ccccc1 | 3

Attention now turns to another entry.
Lookup: Item "O=C(NCC(=O)N1CCN(C(=O)c2ccccc2)CC1)c1nc2ccc(Cl)cc2c(=O)[nH]1" has what recorded Activity?
Found: 6

---

Each entry below carries its reported MIC50.
- System: Candida albicans
- experimental_protocol: Antifungal activity against fluconazole-resistant Candida albicans 632 assessed as reduction in fungal growth incubated for 72 hrs by broth microdilution method
- Type: functional

Field: example entries. Status: answers known.
- O=C(CNC(=O)c1nc2ccc(Cl)cc2c(=O)[nH]1)NCC(=O)c1ccccc1: 2 µg/mL
- NC(=O)OC[C@H](O)[C@@H](O)[C@H](N)C(=O)N[C@H](C(=O)O)[C@H]1O[C@@H](n2cc(CO)c(=O)[nH]c2=O)[C@H](O)[C@@H]1O: 4 µg/mL
- O=C(NCC(=O)N1CCN(C(=O)c2ccccc2)CC1)c1nc2ccc(Cl)cc2c(=O)[nH]1: 4 µg/mL
- OC(Cn1cncn1)(Cn1cncn1)c1ccc(F)cc1F: ≥ 16 µg/mL

Lookup: Please report the recorded MIC50 for "O=C(NCC(=O)N1CCN(c2ccccc2)CC1)c1nc2ccc(Cl)cc2c(=O)[nH]1" .
Found: 8 µg/mL

---

Quick list: Activity per entry.
- Test system: Candida albicans
- experimental_protocol: Induction of apoptosis in Candida albicans ATCC SC5314 assessed as viable cells by V-FITC/PI staining based flow cytometric analysis (reference value: 93.3%)
- Assay type: functional
# answer = value followed by unit

Consider the worked cases shown below.
- O=C(NCC(=O)N1CCN(C(=O)c2ccccc2)CC1)c1nc2ccc(Cl)cc2c(=O)[nH]1: 53.2%
- O=C(NCC(=O)N1CCN(c2ccccc2)CC1)c1nc2ccc(Cl)cc2c(=O)[nH]1: 62.9%
- O=C(CNC(=O)c1nc2ccc(Cl)cc2c(=O)[nH]1)NCC(=O)c1ccccc1: 57.1%

Lookup: Which Activity is reported for this molecule? NC(=O)OC[C@H](O)[C@@H](O)[C@H](N)C(=O)N[C@H](C(=O)O)[C@H]1O[C@@H](n2cc(CO)c(=O)[nH]c2=O)[C@H](O)[C@@H]1O [POLYOXIN B]
Found: 57.5%

---

# MIC50 per entry
- Tested on: Cryptococcus neoformans
- experimental_protocol: Antifungal activity against Cryptococcus neoformans ZKCC 2209 assessed as fungal growth inhibition incubated for 72 hrs by broth microdilution method
- Type: functional
Just the number in µg/mL, nothing appended.

// known answers, use as guide
• NC(=O)OC[C@H](O)[C@@H](O)[C@H](N)C(=O)N[C@H](C(=O)O)[C@H]1O[C@@H](n2cc(CO)c(=O)[nH]c2=O)[C@H](O)[C@@H]1O [POLYOXIN B] = 4
• O=C(NCC(=O)N1CCN(c2ccccc2)CC1)c1nc2ccc(Cl)cc2c(=O)[nH]1 = 2
• O=C(NCC(=O)N1CCN(C(=O)c2ccccc2)CC1)c1nc2ccc(Cl)cc2c(=O)[nH]1 = 4
• OC(Cn1cncn1)(Cn1cncn1)c1ccc(F)cc1F [FLUCONAZOLE] = 2
• O=C(CNC(=O)c1nc2ccc(Cl)cc2c(=O)[nH]1)NCC(=O)c1ccccc1 = 1

# ---- query compound ----
Lookup: I would be grateful if you could share the reported MIC50 for "O=C(CNC(=O)c1nc2ccc(Cl)cc2c(=O)[nH]1)Nc1cccnc1" .
Found: 8

---

- Test system: Nakaseomyces glabratus
- experimental_protocol: Antifungal activity against Candida glabrata assessed as fungal growth inhibition incubated for 72 hrs by broth microdilution method
- Type: functional
Below, each entry is listed with its recorded MIC50.
Write the answer as a number in µg/mL, unit excluded.

Examples from the recorded data:
• NC(=O)OC[C@H](O)[C@@H](O)[C@H](N)C(=O)N[C@H](C(=O)O)[C@H]1O[C@@H](n2cc(CO)c(=O)[nH]c2=O)[C@H](O)[C@@H]1O [POLYOXIN B] = 2
• O=C(CNC(=O)c1nc2ccc(Cl)cc2c(=O)[nH]1)Nc1cccnc1 = 4
• O=C(NCC(=O)N1CCN(c2ccccc2)CC1)c1nc2ccc(Cl)cc2c(=O)[nH]1 = 1

Lookup: Which MIC50 is listed for "O=C(CNC(=O)c1nc2ccc(Cl)cc2c(=O)[nH]1)NCc1ccccc1" ?
Found: 8

Lookup: Look up MIC50 for this compound: "CC(=O)N1CCN(C(=O)CNC(=O)c2nc3ccc(Cl)cc3c(=O)[nH]2)CC1"
Found: 2

Lookup: Query: MIC50; subject: "O=C(CNC(=O)c1nc2ccc(Cl)cc2c(=O)[nH]1)NCC(=O)c1ccccc1"
Found: 2

Lookup: Data request, read-out MIC50, for "O=C(NCC(=O)N1CCN(C(=O)c2ccccc2)CC1)c1nc2ccc(Cl)cc2c(=O)[nH]1"
Found: 1

Lookup: Fill in the blank: the reported MIC50 of OC(Cn1cncn1)(Cn1cncn1)c1ccc(F)cc1F [FLUCONAZOLE] is ____.
Found: 1

---

- experimental_protocol: Inhibition of chitin synthase extracted from Candida tropicalis ATCC 1369 using UDP-GlcNAc as substrate incubated for 1 hrs
readout_name: pIC50
Answer as the number alone; pIC50 is minus log10 of concentration in mol/L.

Please review the entries below; each comes with its answer.
- O=C(CNC(=O)c1nc2ccc(Cl)cc2c(=O)[nH]1)NCc1ccccc1: 4.52
- O=C(CNC(=O)c1nc2ccc(Cl)cc2c(=O)[nH]1)NCC(=O)c1ccccc1: 4.83

Lookup: So what's the measured pIC50 for this one? "NC(=O)OC[C@H](O)[C@@H](O)[C@H](N)C(=O)N[C@H](C(=O)O)[C@H]1O[C@@H](n2cc(CO)c(=O)[nH]c2=O)[C@H](O)[C@@H]1O"
Found: 4.59

Lookup: Fill in the blank: the reported pIC50 of "O=C(NCC(=O)N1CCN(C(=O)c2ccccc2)CC1)c1nc2ccc(Cl)cc2c(=O)[nH]1" is ____.
Found: 4.71

---

- Tested on: Candida albicans
- experimental_protocol: Antifungal activity against fluconazole-resistant Candida albicans CaR assessed as reduction in fungal growth incubated for 72 hrs by broth microdilution method
- Type: functional
readout_name: MIC50

Example results:
- OC(Cn1cncn1)(Cn1cncn1)c1ccc(F)cc1F: ≥ 16 µg/mL
- O=C(NCC(=O)N1CCN(c2ccccc2)CC1)c1nc2ccc(Cl)cc2c(=O)[nH]1: 4 µg/mL
- NC(=O)OC[C@H](O)[C@@H](O)[C@H](N)C(=O)N[C@H](C(=O)O)[C@H]1O[C@@H](n2cc(CO)c(=O)[nH]c2=O)[C@H](O)[C@@H]1O: 8 µg/mL

Lookup: Item under review: "O=C(CNC(=O)c1nc2ccc(Cl)cc2c(=O)[nH]1)NCC(=O)c1ccccc1" . Reported MIC50?
Found: 2 µg/mL

Lookup: Fill in the blank: the reported MIC50 of "O=C(NCC(=O)N1CCN(C(=O)c2ccccc2)CC1)c1nc2ccc(Cl)cc2c(=O)[nH]1" is ____.
Found: 2 µg/mL

Reference for the values: ChEMBL document CHEMBL6103585
